Tested on: Escherichia coli TOP10;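 further: peptides expressed intracellularly from a pBAD plasmid library in pooled LB shake-flask culture, induced with 0.3% L-arabinose, DNA abundance read by NGS, three biological replicates, DESeq2 with apeglm shrinkage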
Assay protocol: shrunken log2 fold change of peptide-encoding DNA abundance (4.5 h post-induction vs induction); higher = less antimicrobial activity (less host growth inhibition)
Assay context: time post-induction: 4.5 h; library: site-saturation at positions 5, 18, 19, 20
Below, each of the sequences is paired with its reported shrunken log2 fold change value.
The reply should be a number, written without any unit.

RRIRLRPPRLPRPRPRPSWIPRP    -0.131
RRIRERPPRLPRPRPRPFNVPRP    -0.0305
RRIRGRPPRLPRPRPRPEGPPRP    -0.0198
RRIRVRPPRLPRPRPRPGNSPRP    0.0126

Query sequence follows.
*Q* For the sequence RRIRTRPPRLPRPRPRPDPDPRP , what shrunken log2 fold change is on record?
*A* -0.0398
